5-hydroxytryptamine receptor 6 (Homo sapiens): recorded log10(Ki) for assorted molecules
Sequence (P50406 whole entry): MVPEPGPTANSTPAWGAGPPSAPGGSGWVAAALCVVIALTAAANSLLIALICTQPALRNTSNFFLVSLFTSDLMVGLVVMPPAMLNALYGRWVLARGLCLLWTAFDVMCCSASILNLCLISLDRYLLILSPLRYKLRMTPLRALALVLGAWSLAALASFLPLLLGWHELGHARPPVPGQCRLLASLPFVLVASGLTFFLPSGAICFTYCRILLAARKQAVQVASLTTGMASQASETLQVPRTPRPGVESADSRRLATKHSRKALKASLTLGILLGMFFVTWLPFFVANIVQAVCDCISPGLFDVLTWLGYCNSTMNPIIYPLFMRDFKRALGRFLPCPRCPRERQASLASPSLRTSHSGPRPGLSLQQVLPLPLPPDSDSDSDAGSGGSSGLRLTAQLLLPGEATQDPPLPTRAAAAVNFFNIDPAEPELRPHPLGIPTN
Note the log scale: values are log10 of Ki expressed in nM.

Query: Please report log10(Ki) for the following molecule: `CC1=C(CO)Oc2cccc3c2c1cn3S(=O)(=O)c1cccc2ccccc12`
Result: 1.30

Query: Please report log10(Ki) for the following molecule: `CC1=C(CO)Oc2cccc3c2c1cn3S(=O)(=O)c1ccccc1`
Result: 1.72

Query: Please report log10(Ki) for the following molecule: `CN(C)CC1=Cc2cn(S(=O)(=O)c3cccc4ccccc34)c3cccc(c23)O1`
Result: 0.00

Query: Please report log10(Ki) for the following molecule: `O=S(=O)(c1cccc2ccccc12)n1cc2c3c(cccc31)OC(CO)=C2`
Result: 0.60

Query: Please report log10(Ki) for the following molecule: `CCN(CC)CC1=Cc2cn(S(=O)(=O)c3ccccc3)c3cccc(c23)O1`
Result: 1.45

Query: Please report log10(Ki) for the following molecule: `O=S(=O)(c1ccccc1)n1cc2c3c(cccc31)OC(CO)=C2`
Result: 1.56

Query: Please report log10(Ki) for the following molecule: `CN(C)CC1=Cc2cn(S(=O)(=O)c3ccccc3)c3cccc(c23)O1`
Result: 0.70

Query: Please report log10(Ki) for the following molecule: `N#CC1=Cc2cn(S(=O)(=O)c3cccc4ccccc34)c3cccc(c23)O1`
Result: 2.88

// provenance: ChEMBL document CHEMBL3994665
